This collection of values is drawn from patent US10398142B2.

# System: HA-MRSA (ATCC 33591)
# test details: Minimum inhibitory concentration (MIC), broth microdilution
# Assay type: cell-based, Staphylococcus aureus
# condition set: Table 4; ATCC 33591; read-out: MIC HA-MRSA
quantity: MIC (µM)

>  <compound>
CCCCCCCCCCCC[N+](C)(C)CC[N+](C)(C)CCCCCCCCCCCC [12,2,12]

>  <system>
HA-MRSA (ATCC 33591)

>  <unit of measure>
µM

>  <endpoint result>
0.5

$$$$
>  <compound>
CCCCCCCCCCCC[N+](C)(C)CCC[N+](C)(CCCCCCCCCCCC)CCC[N+](C)(C)CCCCCCCCCCCC.[Br-].[Br-].[Br-] [12,3,12,3,12]

>  <system>
HA-MRSA (ATCC 33591)

>  <unit of measure>
µM

>  <endpoint result>
1

$$$$
>  <compound>
C=CC[N+](C)(CC[N+](C)(C)CCCCCCCCCCCC)CC[N+](C)(CC=C)CC[N+](C)(C)CCCCCCCCCCCC.[Br-].[Br-].[Br-].[Br-] (stereo not shown) [N4-12,3A,3A,12]

>  <system>
HA-MRSA (ATCC 33591)

>  <unit of measure>
µM

>  <endpoint result>
0.5

$$$$
>  <compound>
CCCCCCCCCC[N+](C)(C)CCCCCCCCCC.[Cl-] [10,10, reference compound]

>  <system>
HA-MRSA (ATCC 33591)

>  <unit of measure>
µM

>  <endpoint result>
2

$$$$
>  <compound>
CCCCCCCCCCCC[n+]1cccc(-c2ccc[n+](Cc3ccccc3)c2)c1.[Br-].[Br-] [MQ-12,Bn]

>  <system>
HA-MRSA (ATCC 33591)

>  <unit of measure>
µM

>  <endpoint result>
16

$$$$
>  <compound>
CCCCCCCCCCCC[N+](C)(C)CCC[N+](C)(C)CCC[N+](C)(C)CCCCCCCCCCCC.[Br-].[Br-].[I-] [12,3,1,3,12]

>  <system>
HA-MRSA (ATCC 33591)

>  <unit of measure>
µM

>  <endpoint result>
1

$$$$
>  <compound>
CCCCCCCCCCCC[N+](C)(C)CCC[N+](C)(CC)CCC[N+](C)(C)CCCCCCCCCCCC.[Br-].[Br-].[Br-] [12,3,2,3,12]

>  <system>
HA-MRSA (ATCC 33591)

>  <unit of measure>
µM

>  <endpoint result>
1

$$$$

---

# System: S. aureus (MSSA, SH1000) biofilms
# test details: Minimum biofilm eradication concentration (MBEC), regrowth assay
# Type: cell-based, Staphylococcus aureus
# condition set: Table 2; pre-established biofilm; ± values varied between 50 and 100 μM for the six trials
Marks after values point to notes of the source that are not given here.
Measured MBEC S. aureus accompanies every entry in the list below.
quantity: MBEC S. aureus

>  <molecule>
CCCCCCCCCCCC[N+](C)(C)CCCCC[N+](C)(C)CCCCCCCCCCCC.[Br-].[Br-]

>  <system>
S. aureus (MSSA, SH1000) biofilms

>  <endpoint result>
75 ± 25^a μM

$$$$
>  <molecule>
NCCCNCCCN [Norspermidine, reference compound]

>  <system>
S. aureus (MSSA, SH1000) biofilms

>  <endpoint result>
>200 µM

$$$$
>  <molecule>
C[N+](C)(C)CCCCC[N+](C)(C)C

>  <system>
S. aureus (MSSA, SH1000) biofilms

>  <endpoint result>
>200 µM

$$$$
>  <molecule>
C[N+](C)(C)CC[N+](C)(C)C

>  <system>
S. aureus (MSSA, SH1000) biofilms

>  <endpoint result>
>200 µM

$$$$
>  <molecule>
CCCCCCCCCCCC[N+](C)(C)CCN(C)CC[N+](C)(C)CCCCCCCCCCCC.[Br-].[Br-]

>  <system>
S. aureus (MSSA, SH1000) biofilms

>  <endpoint result>
75 ± 25^a μM

$$$$
>  <molecule>
CCCCCCCCCCCC[N+](C)(C)CCCCCCCCCCCC.[Br-]

>  <system>
S. aureus (MSSA, SH1000) biofilms

>  <endpoint result>
>200 µM

$$$$

---

# Tested on: E. faecalis biofilms
# test details: Minimum biofilm eradication concentration (MBEC), regrowth assay
# Type: cell-based, Enterococcus faecalis
# condition set: Table 2; pre-established biofilm; ± values varied between 50 and 100 μM for the six trials
# Method: A regrowth assay was used to establish the MBEC of a compound to evaluate the antibiofilm activity. See also H. Ceri, M. Olson, D. Morck, D. Storey, R. Read, A. Buret, B. Olson, Methods Enzymol. 2001, 337, 377. Encouraged by the potency of the QACs against planktonic bacterial cells, the inventors then evaluated the efficacy of compound (12,2,12) against Staphylococcus aureus and Enterococcus faecalis biofilms. […] Minimum biofilm eradication concentration (MBEC) was also measured. […]
Marks after values point to notes of the source that are not given here.
quantity: MBEC E. faecalis

>  <molecule>
C[N+](C)(C)CCCCC[N+](C)(C)C [1,5,1]

>  <quantity>
MBEC E. faecalis

>  <endpoint result>
>200 µM

$$$$
>  <molecule>
CCCCCCCCCCCC[N+](C)(C)CCCCC[N+](C)(C)CCCCCCCCCCCC.[Br-].[Br-] [12,5,12]

>  <quantity>
MBEC E. faecalis

>  <endpoint result>
75 ± 25^a μM

$$$$
>  <molecule>
C[N+](C)(C)CC[N+](C)(C)C [1,2,1]

>  <quantity>
MBEC E. faecalis

>  <endpoint result>
>200 µM

$$$$

---

# Tested on: HA-MRSA (ATCC 33591)
# test details: Minimum inhibitory concentration (MIC), broth microdilution
# Format: cell-based, Staphylococcus aureus
# condition set: Table 4; ATCC 33591; read-out: MIC HA-MRSA
# Protocol: Different biological assays were performed. […] All cultures, with the exception of E. faecalis, were grown with shaking at 250 rpm. Minimum inhibitory concentration (MIC) values against bacteria were measured using standard method. Compounds were serially diluted two-fold from an aqueous stock solution to yield twelve test concentrations. […] Plates were incubated statically at 37° C. for 72 hours upon which time wells were evaluated visually for bacterial growth. […]

>  <molecule>
C=CC[N+](C)(CC[N+](C)(C)CCCCCCCCCCCC)CC[N+](C)(C)CCCCCCCCCCCC.[Br-].[Br-].[Br-]

>  <MIC (µM)>
1

$$$$
>  <molecule>
CCCCCCCCCCCC[n+]1ccc(-c2cc[n+](CCCCCCCCCCCC)cc2)cc1.[Br-].[Br-]

>  <MIC (µM)>
0.5

$$$$
>  <molecule>
C=CC[N+](C)(CCC[N+](C)(C)CCCCCCCCCCCC)CCC[N+](C)(C)CCCCCCCCCCCC.[Br-].[Br-].[Br-]

>  <MIC (µM)>
1

$$$$
>  <molecule>
CCCCCCCCCCCCCCCC[n+]1ccccc1.[Cl-] [Pyr,16, reference compound]

>  <MIC (µM)>
1

$$$$
>  <molecule>
CCCCCCCCCCCC[N+](C)(C)CCN(C)CCN(C)CC[N+](C)(C)CCCCCCCCCCCC.[Br-].[Br-]

>  <MIC (µM)>
1

$$$$
>  <molecule>
CCCCCCCCCCCC[N+](C)(C)CCC[N+](C)(CCCC)CCC[N+](C)(C)CCCCCCCCCCCC.[Br-].[Br-].[Br-]

>  <MIC (µM)>
0.5

$$$$

---

# Test system: CA-MRSA (USA300-0114)
# test details: Minimum inhibitory concentration (MIC), broth microdilution
# Type: cell-based, Staphylococcus aureus
# condition set: Table 4; USA300-0114; read-out: MIC CA-MRSA
Parameter: MIC. Scope: all listed entries.

>  <molecule>
CCCCCCCCCCCC[n+]1cccc(-c2ccc[n+](CCCCCCCCCCCC)c2)c1.[Br-].[Br-]

>  <MIC (µM)>
2

$$$$
>  <molecule>
CCCCCCCCCCCC[n+]1ccc(-c2cc[n+](CCCCCCCCCCCC)cc2)cc1.[Br-].[Br-]

>  <MIC (µM)>
1

$$$$
>  <molecule>
CCCCCCCCCCCC[n+]1ccc(-c2ccc[n+](CCCCCCCCCCCC)c2)cc1.[Br-].[Br-]

>  <MIC (µM)>
1

$$$$
>  <molecule>
C=CC[N+](C)(CC[N+](C)(C)CCCCCCCCCCCC)CC[N+](C)(CC=C)CC[N+](C)(C)CCCCCCCCCCCC.[Br-].[Br-].[Br-].[Br-] (centres unmarked)

>  <MIC (µM)>
1

$$$$
>  <molecule>
C=CC[N+](C)(CCC[N+](C)(C)CCCCCCCCCCCC)CCC[N+](C)(C)CCCCCCCCCCCC.[Br-].[Br-].[Br-]

>  <MIC (µM)>
1

$$$$
